Where do the numbers come from? From patent US20190038588A1.

List of complex III activity (% of control) Mean (SEM) values.
# targetUnderTest: mitochondrial complex III (Mus musculus)
# Construct: the supernatant containing the mitochondria was pelleted at 14,000 g; endogenous in cells; host or cells: C2C12 cells, mitochondrial fraction
# measurementNotes: Complex III enzyme activity in mitochondrial fractions of C2C12 cells (cytochrome c reduction at 550 nm)
# Type: biochemical
# assaySetup: compound at 100 μM; background by antimycin A (2.5 μM); n = 3 independent experiments

Would you please look over these solved cases?
INSERT INTO results (compound, endpointresult) VALUES
  ('CC(C)c1nc(N(C)S(C)(=O)=O)nc(-c2ccc(F)cc2)c1/C=C/[C@@H](O)C[C@@H](O)c1nc(=O)o[nH]1', '143.50 (15.67) % of control'),
  ('CC(C)c1nc(N(C)S(C)(=O)=O)nc(-c2ccc(F)cc2)c1/C=C/[C@@H](O)C[C@@H](O)Cc1nc(=O)o[nH]1', '85.85 (10.62) % of control'),
  ('CCC(C)(C)C(=O)O[C@H]1C[C@@H](C)C=C2C=C[C@H](C)[C@H](CC[C@@H](O)C[C@@H](O)CC#N)[C@H]21', '53.24 (1.53) % of control'),
  ('CC[C@H](C)C(=O)O[C@H]1C[C@@H](C)C=C2C=C[C@H](C)[C@H](CC[C@@H](O)C[C@@H](O)CC(N)=O)[C@H]21 [lovastatin amide]', '104.10 (12.47) % of control'),
  ('CCC(C)(C)C(=O)O[C@H]1C[C@@H](C)C=C2C=C[C@H](C)[C@H](CC[C@@H](O)C[C@@H](O)Cc3nc(=O)o[nH]3)[C@H]21', '74.37 (4.20) % of control'),
  ('CCC(C)(C)C(=O)O[C@H]1C[C@@H](C)C=C2C=C[C@H](C)[C@H](CC[C@@H](O)C[C@@H](O)Cc3nnn[nH]3)[C@H]21', '80.37 (5.13) % of control'),
  ('CCC(C)(C)C(=O)O[C@H]1C[C@@H](C)C=C2C=C[C@H](C)[C@H](CC[C@@H]3C[C@@H](O)CC(=O)O3)[C@H]21 [simvastatin lactone, reference compound]', '44.55 (6.27) % of control'),
  ('CC(C)c1nc(N(C)S(C)(=O)=O)nc(-c2ccc(F)cc2)c1/C=C/[C@@H](O)C[C@@H](O)c1nnn[nH]1', '134.50 (17.29) % of control'),
  ('CC(C)c1nc(N(C)S(C)(=O)=O)nc(-c2ccc(F)cc2)c1/C=C/[C@@H](O)C[C@@H](O)CC(N)=O [rosuvastatin amide]', '94.39 (6.41) % of control'),
  ('CCC(C)(C)C(=O)O[C@H]1C[C@@H](C)C=C2C=C[C@H](C)[C@H](CC[C@@H](O)C[C@@H](O)CC(=O)NC)[C@H]21 [simvastatin methylamide]', '50.43 (5.71) % of control');

Q. Sample CC(C)c1c(C(=O)Nc2ccccc2)c(-c2ccccc2)c(-c2ccc(F)cc2)n1CC[C@@H](O)C[C@@H](O)CC(N)=O [atorvastatin amide] — what was its complex III activity (% of control) Mean (SEM)?
A. 54.34 (7.70) % of control

---

# targetUnderTest: catalytic domain of the human HMG-CoA reductase (Homo sapiens, UniProt P04035)
# Construct: containing the catalytic domain of the human HMG-CoA reductase; purchased Sigma-Aldrich CS-1090
# Sequence (P04035 426-888 limits assumed): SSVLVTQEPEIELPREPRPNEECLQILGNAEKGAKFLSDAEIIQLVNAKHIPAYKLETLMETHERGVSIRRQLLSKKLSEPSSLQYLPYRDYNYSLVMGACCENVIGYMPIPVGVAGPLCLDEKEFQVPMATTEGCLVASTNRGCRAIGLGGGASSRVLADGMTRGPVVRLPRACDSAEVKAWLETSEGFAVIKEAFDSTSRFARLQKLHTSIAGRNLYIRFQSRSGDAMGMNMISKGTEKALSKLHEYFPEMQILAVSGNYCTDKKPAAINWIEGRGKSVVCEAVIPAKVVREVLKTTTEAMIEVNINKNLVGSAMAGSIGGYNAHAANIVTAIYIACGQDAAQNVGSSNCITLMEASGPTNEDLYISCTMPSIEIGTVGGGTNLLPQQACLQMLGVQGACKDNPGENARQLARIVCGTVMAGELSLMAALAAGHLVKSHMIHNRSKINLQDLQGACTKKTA
# measurementNotes: HMG-CoA reductase activity and inhibition assay (Sigma CS-1090 kit, NADPH oxidation at 340 nm)
# Assay type: biochemical
# assaySetup: compound at 300 nM; n = 3 independent experiments
Here, each record is paired with measured HMGR activity (% of control) Mean (SEM) data.

INSERT INTO measurements (compound, endpointresult) VALUES
  ('CCC(C)(C)C(=O)O[C@H]1C[C@@H](C)C=C2C=C[C@H](C)[C@H](CC[C@@H](O)C[C@@H](O)CC(N)=O)[C@H]21 [simvastatin amide]', '110.10 (11.81) % of control'),
  ('CCC(C)(C)C(=O)O[C@H]1C[C@@H](C)C=C2C=C[C@H](C)[C@H](CC[C@@H](O)C[C@@H](O)Cc3nc(=O)o[nH]3)[C@H]21', '73.44 (2.81) % of control'),
  ('CC(C)c1nc(N(C)S(C)(=O)=O)nc(-c2ccc(F)cc2)c1/C=C/[C@@H](O)C[C@@H](O)Cc1nnn[nH]1', '81.28 (4.70) % of control');

Q. Requested read-out: HMGR activity (% of control) Mean (SEM). Entry: CC(C)c1nc(N(C)S(C)(=O)=O)nc(-c2ccc(F)cc2)c1/C=C/[C@@H](O)C[C@@H](O)CC(=O)O [rosuvastatin carboxylic acid, reference compound]
A. 24.09 (3.30) % of control

Q. I have this compound here, CC(C)c1nc(N(C)S(C)(=O)=O)nc(-c2ccc(F)cc2)c1/C=C/[C@@H](O)C[C@@H](O)Cc1nc(=O)o[nH]1 , and I need its recorded HMGR activity (% of control) Mean (SEM).
A. 88.17 (4.21) % of control

---

# targetUnderTest: catalytic domain of the human HMG-CoA reductase (Homo sapiens)
# Construct: containing the catalytic domain of the human HMG-CoA reductase; purchased Sigma-Aldrich CS-1090
# measurementNotes: HMG-CoA reductase activity and inhibition assay (Sigma CS-1090 kit, NADPH oxidation at 340 nm)
# Format: biochemical
# assaySetup: compound at 300 nM; n = 3 independent experiments
compounds and their reported HMGR activity (% of control) Mean (SEM)

// known answers, use as guide
INSERT INTO measurements (compound, measurename, endpointresult) VALUES
  ('CC(C)c1c(C(=O)Nc2ccccc2)c(-c2ccccc2)c(-c2ccc(F)cc2)n1CC[C@@H](O)C[C@@H](O)CC(=O)O [atorvastatin carboxylic acid, reference compound]', 'HMGR activity (% of control) Mean (SEM)', '24.39 (8.91) % of control'),
  ('CC(C)c1nc(N(C)S(C)(=O)=O)nc(-c2ccc(F)cc2)c1/C=C/[C@@H](O)C[C@@H](O)CC(N)=O [rosuvastatin amide]', 'HMGR activity (% of control) Mean (SEM)', '81.57 (10.29) % of control'),
  ('CC[C@H](C)C(=O)O[C@H]1C[C@@H](C)C=C2C=C[C@H](C)[C@H](CC[C@@H](O)C[C@@H](O)CC(=O)NO)[C@H]21 [lovastatin hydroxamic acid]', 'HMGR activity (% of control) Mean (SEM)', '70.19 (6.79) % of control'),
  ('CCC(C)(C)C(=O)O[C@H]1C[C@@H](C)C=C2C=C[C@H](C)[C@H](CC[C@@H](O)C[C@@H](O)CC(=O)O)[C@H]21 [simvastatin carboxylic acid, reference compound]', 'HMGR activity (% of control) Mean (SEM)', '63.10 (10.70) % of control'),
  ('CC(C)c1nc(N(C)S(C)(=O)=O)nc(-c2ccc(F)cc2)c1/C=C/[C@@H](O)C[C@@H](O)CC#N [rosuvastatin nitrile]', 'HMGR activity (% of control) Mean (SEM)', '102.50 (7.87) % of control');

Now consider a different compound.
Q. Return reported HMGR activity (% of control) Mean (SEM); argument: CC[C@H](C)C(=O)O[C@H]1C[C@@H](C)C=C2C=C[C@H](C)[C@H](CC[C@@H](O)C[C@@H](O)CC(=O)O)[C@H]21 [lovastatin carboxylic acid, reference compound]
A. 68.18 (14.81) % of control
